The reported numbers originate from paper PMC6556873.

Measured viability at 48 h, 10 µM, listed per entry for reference.
Measurement Description: in vitro
Set-up: species or system CCD841, HEK293
Condition Summary: human, hb2 cells, read-out: HB-2 Cells Viability (%)
Reported Property: viability at 48 h, 10 µM (%)

Compound: CC(C)(C)CCNC(=O)CCl
Reported Property: viability at 48 h, 10 µM
Recorded Result: 99.7

Compound: C=CC(=O)N1CC(O)CC1c1ccccc1C(F)(F)F (centres unmarked)
Reported Property: viability at 48 h, 10 µM
Recorded Result: 98.4

Compound: C=CC(=O)N1CCCN(Cc2cn3cc(Cl)ccc3n2)CC1
Reported Property: viability at 48 h, 10 µM
Recorded Result: 106

Compound: O=C(CCl)NC(=O)c1ccccc1
Reported Property: viability at 48 h, 10 µM
Recorded Result: 102

Compound: CCN(C(=O)CCl)C1CCS(=O)(=O)C1 (centres unmarked)
Reported Property: viability at 48 h, 10 µM
Recorded Result: 95

Compound: Cc1cccc(N2CCN(C(=O)CCl)CC2)c1.Cl
Reported Property: viability at 48 h, 10 µM
Recorded Result: 13.1

Compound: C=CC(=O)N1CCCC(S(=O)(=O)N2CCOCC2)C1 (centres unmarked)
Reported Property: viability at 48 h, 10 µM
Recorded Result: 107

Compound: Cl.O=C(CCl)N1CCN(CC(=O)N2CCOCC2)CC1
Reported Property: viability at 48 h, 10 µM
Recorded Result: 96.6

Compound: O=C(CCl)NNC(=O)c1ccco1
Reported Property: viability at 48 h, 10 µM
Recorded Result: 96.9

Compound: C=CC(=O)N1CCC(n2cccn2)CC1
Reported Property: viability at 48 h, 10 µM
Recorded Result: 102

Compound: O=C(CCl)N1N=C(c2ccco2)CC1c1ccco1 (centres unmarked)
Reported Property: viability at 48 h, 10 µM
Recorded Result: 55.7

Compound: Cc1ccc(N(C(=O)CCl)C2C=CS(=O)(=O)C2)cc1C (centres unmarked)
Reported Property: viability at 48 h, 10 µM
Recorded Result: 19.6

Compound: O=C(CCl)Nc1ccc(F)cc1F
Reported Property: viability at 48 h, 10 µM
Recorded Result: 54.2

Compound: N#CCc1ccc(NC(=O)CCl)cc1
Reported Property: viability at 48 h, 10 µM
Recorded Result: 11.8

Compound: C=CC(=O)N(C)C1CCCc2nc(CC)sc21 (centres unmarked)
Reported Property: viability at 48 h, 10 µM
Recorded Result: 98.1

Compound: Cc1ccc(S(=O)(=O)N2CCN(C(=O)CCl)CC2)cc1
Reported Property: viability at 48 h, 10 µM
Recorded Result: 7.5

Compound: CN(C)C(=O)c1cccc(NC(=O)CCl)c1
Reported Property: viability at 48 h, 10 µM
Recorded Result: 52.9

Compound: O=C(CCl)Nc1ccccc1Br
Reported Property: viability at 48 h, 10 µM
Recorded Result: 90.8

Compound: O=C(CCl)N1CCCC(C(F)(F)F)C1 (centres unmarked)
Reported Property: viability at 48 h, 10 µM
Recorded Result: 44.7

Compound: C=CC(=O)Nc1ccc(Cl)cc1
Reported Property: viability at 48 h, 10 µM
Recorded Result: 95.5

Compound: O=C(CCl)Nc1ccc([N+](=O)[O-])cc1Br
Reported Property: viability at 48 h, 10 µM
Recorded Result: 54.1

Compound: CC1CCCN(C(=O)C2CCN(C(=O)CCl)CC2)C1 (centres unmarked)
Reported Property: viability at 48 h, 10 µM
Recorded Result: 92.6

Compound: O=C(CCl)N1N=C(c2ccco2)CC1c1ccsc1 (centres unmarked)
Reported Property: viability at 48 h, 10 µM
Recorded Result: 15.3
